biological target: 5-HT2A receptor (Homo sapiens); construct: purchased PerkinElmer; test: Radioligand binding assay, serotoninergic 5-HT2A receptors; conditions: binding assay result in %, Table 5a
Sequence (P28223 whole entry): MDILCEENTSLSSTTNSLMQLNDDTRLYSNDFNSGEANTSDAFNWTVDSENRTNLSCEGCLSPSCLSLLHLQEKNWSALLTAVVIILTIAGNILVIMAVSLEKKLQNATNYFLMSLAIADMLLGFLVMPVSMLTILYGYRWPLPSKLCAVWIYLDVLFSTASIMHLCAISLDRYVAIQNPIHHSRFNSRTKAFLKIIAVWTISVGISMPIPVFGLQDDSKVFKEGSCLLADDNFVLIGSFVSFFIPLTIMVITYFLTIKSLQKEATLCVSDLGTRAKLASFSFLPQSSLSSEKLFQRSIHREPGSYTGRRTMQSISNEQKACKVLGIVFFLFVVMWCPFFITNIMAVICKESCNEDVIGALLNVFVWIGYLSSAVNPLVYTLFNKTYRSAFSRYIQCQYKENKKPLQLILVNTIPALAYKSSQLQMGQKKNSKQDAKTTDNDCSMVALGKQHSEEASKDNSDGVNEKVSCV
ASSAY ENDPOINT: inhibition at 1 µM (%)
Expressed in %, but write only the number.

O=S(=O)(NCC1CCN(CCOc2cccc3c2OCCO3)C1)c1ccc(F)cc1 (centres unmarked) [Compound 300] ... 72
Cn1ccc2c(S(=O)(=O)NCC3CCN(CCCc4noc5cc(F)ccc45)C3)cccc21 (centres unmarked) [Compound 259] ... 100
O=S(=O)(NCC1CCN(CCOc2cccc3c2OCCO3)C1)c1cccc(F)c1 (centres unmarked) [Compound 298] ... 88
O=S(=O)(NC1CCN(CCCc2c[nH]c3ccc(F)cc23)C1)c1cccc2ccccc12 (centres unmarked) [Compound 79] ... 99
O=S(=O)(NC1CCN(CCCc2noc3cc(F)ccc23)C1)c1cnc2ccccn12 (centres unmarked) [Compound 30] ... 95

Task: 5-HT2A receptor (Homo sapiens) / inhibition at 1 µM / O=S(=O)(NCC1CCN(CCOc2cccc3c2OCCO3)C1)c1ccc(Cl)s1 (centres unmarked) [Compound 316] : value?
Result: 82

Task: Let us now turn to O=S(=O)(NCC1CN(CCOc2cccc3c2OCCO3)C1)c1ccsc1 [Compound 191]
Result: 42

Task: Let us now turn to O=S(=O)(NC1CCN(CCCc2noc3cc(F)ccc23)C1)c1cccc(C(F)(F)F)c1 (centres unmarked) [Compound 15]
Result: 57

---

biological target: hERG potassium channels (KCNH2 gene, expressed in CHO cells) (Homo sapiens); construct: expressed in transfected cells; host or cells: CHO cells; test: Ability to block hERG potassium channel (electrophysiology, IonWorks Quattro); type: cell-based; settings: % block of hERG current, test compound 1×10^−5 M
Sequence (Q12809 whole entry): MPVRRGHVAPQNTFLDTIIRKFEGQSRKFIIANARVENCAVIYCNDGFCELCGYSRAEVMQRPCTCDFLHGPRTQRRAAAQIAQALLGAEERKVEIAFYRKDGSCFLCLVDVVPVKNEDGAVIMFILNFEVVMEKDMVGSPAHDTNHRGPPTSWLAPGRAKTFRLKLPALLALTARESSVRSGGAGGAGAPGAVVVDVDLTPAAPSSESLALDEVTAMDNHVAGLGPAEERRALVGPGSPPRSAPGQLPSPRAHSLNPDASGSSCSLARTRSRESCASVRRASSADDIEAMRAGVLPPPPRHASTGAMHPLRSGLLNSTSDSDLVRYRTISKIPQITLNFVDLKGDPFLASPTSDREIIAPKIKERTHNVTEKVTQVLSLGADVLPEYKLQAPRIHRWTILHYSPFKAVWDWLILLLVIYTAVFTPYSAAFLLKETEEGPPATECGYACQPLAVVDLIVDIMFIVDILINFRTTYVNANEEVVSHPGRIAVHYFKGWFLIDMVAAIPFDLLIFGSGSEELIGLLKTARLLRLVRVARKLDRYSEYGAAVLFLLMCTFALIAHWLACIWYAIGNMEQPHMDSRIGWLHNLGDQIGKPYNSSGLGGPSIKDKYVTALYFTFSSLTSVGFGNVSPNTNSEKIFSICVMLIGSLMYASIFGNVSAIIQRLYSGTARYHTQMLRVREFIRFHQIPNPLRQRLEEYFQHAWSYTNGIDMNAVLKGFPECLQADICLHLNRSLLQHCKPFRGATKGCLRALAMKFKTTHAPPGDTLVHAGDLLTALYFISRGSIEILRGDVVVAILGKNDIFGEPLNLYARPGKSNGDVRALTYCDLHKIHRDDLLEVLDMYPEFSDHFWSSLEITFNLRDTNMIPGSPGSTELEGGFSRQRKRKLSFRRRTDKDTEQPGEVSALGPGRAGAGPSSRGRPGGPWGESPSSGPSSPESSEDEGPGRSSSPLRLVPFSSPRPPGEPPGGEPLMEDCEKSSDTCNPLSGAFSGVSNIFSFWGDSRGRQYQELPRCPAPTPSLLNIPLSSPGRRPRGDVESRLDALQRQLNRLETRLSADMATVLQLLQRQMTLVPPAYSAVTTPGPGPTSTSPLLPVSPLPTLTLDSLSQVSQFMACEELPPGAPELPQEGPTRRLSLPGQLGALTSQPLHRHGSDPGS
ASSAY ENDPOINT: hERG [%]
Returns: string containing the numeric result and its unit.

O=S(=O)(NC1CN(CCOc2cccc3c2OCCO3)C1)c1cccc2ccccc12 [Compound 94] ... 4.8%
O=S(=O)(NC1CCN(CCCc2noc3cc(F)ccc23)CC1)c1cccc2ccccc12 [Compound 34] ... −1.1%
O=S(=O)(NC1CCN(CCCc2noc3cc(F)ccc23)C1)c1csc2ccccc12 (centres unmarked) [Compound 26] ... 6.1%
O=S(=O)(NC1CCN(CCCc2noc3cc(F)ccc23)C1)c1cc2ccccc2s1 (centres unmarked) [Compound 25] ... 2.9%

Task: hERG potassium channels (KCNH2 gene, expressed in CHO cells) (Homo sapiens) / hERG [%] / O=S(=O)(NC1CCN(CCCc2noc3cc(F)ccc23)C1)c1ccc2ccccc2c1 (centres unmarked) [Compound 21] : value?
Result: 3.3%

---

biological target: 5-HT7 receptor (Homo sapiens); construct: purchased PerkinElmer; assay: Radioligand binding assay, serotoninergic 5-HT7 receptors; conditions: binding assay result in %, Table 5a;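 also: test compound at 1 µM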
Sequence (P34969 whole entry): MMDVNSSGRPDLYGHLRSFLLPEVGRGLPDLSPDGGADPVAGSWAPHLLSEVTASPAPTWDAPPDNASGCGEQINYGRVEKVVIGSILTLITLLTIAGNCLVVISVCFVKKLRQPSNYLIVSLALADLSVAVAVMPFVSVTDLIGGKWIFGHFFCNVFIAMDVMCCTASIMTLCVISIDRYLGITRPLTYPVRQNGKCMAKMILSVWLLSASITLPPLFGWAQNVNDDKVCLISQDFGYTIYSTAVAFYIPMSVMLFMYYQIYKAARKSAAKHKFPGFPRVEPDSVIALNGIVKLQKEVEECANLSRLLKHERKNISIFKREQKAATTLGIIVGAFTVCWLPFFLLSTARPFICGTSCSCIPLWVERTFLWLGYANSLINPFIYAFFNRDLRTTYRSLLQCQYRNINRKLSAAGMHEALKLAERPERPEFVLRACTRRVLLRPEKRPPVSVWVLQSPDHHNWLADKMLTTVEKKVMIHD
ASSAY ENDPOINT: inhibition at 1 µM (%)
Expressed in %, but write only the number.

Sample answers from the record:
O=S(=O)(NCC1CN(CCOc2cccc3c2OCCO3)C1)c1ccsc1 [Compound 191] ... 93
O=S(=O)(NC1CCN(CCCc2noc3cc(F)ccc23)CC1)c1csc2ccccc12 [Compound 330] ... 101
COc1ccc2cc(S(=O)(=O)N[C@H]3CCN(CCCc4noc5cc(F)ccc45)C3)ccc2c1 [Compound 231] ... 88
O=S(=O)(NCC1CN(CCOc2cccc3c2OCCO3)C1)c1csc2ccccc12 [Compound 190] ... 97
CC1(C)Cc2cccc(OCCN3CCC(NS(=O)(=O)c4ccc5ccccc5c4)C3)c2O1 (centres unmarked) [Compound 108] ... 98

Task: Which inhibition at 1 µM is listed for O=S(=O)(NC1CCN(CCCc2c[nH]c3ccc(Cl)cc23)C1)c1ccc2ccccc2c1 (centres unmarked) [Compound 87] ?
Result: 71

Task: Let us now turn to COc1ccc(S(=O)(=O)NC2CCN(CCCc3noc4cc(F)ccc34)C2)cc1 (centres unmarked) [Compound 213]
Result: 93

Task: Let us now turn to O=S(=O)(NCC1CN(CCOc2cccc3c2OCCO3)C1)c1ccc(I)cc1 [Compound 193]
Result: 92
